test system: HIV-1 LTR-III G-quadruplex (FAM/TAMRA-labeled LTR-III); assay: FRET melting assay, LTR-III G4; assay type: binding; conditions: Table S1 primary screening, ligand:ODN 50:1, singlicate
PROPERTY MEASURED: LTR-III ΔTm (°C)

                  compound_structure_string  property_measured  number
0         O=C1NC(c2ccccc2)=NC1=Cc1ccc(O)cc1        LTR-III ΔTm    -0.5
1  C=CCN1C(=O)C(=Cc2ccc(O[Si](c3ccccc3)(c3ccccc3)C(C)(C)C)cc2)N=C1C        LTR-III ΔTm    -0.2
2  COc1ccc(C=C2N=C(C=C(O)c3ccc(C)cc3)N(C)C2=O)cc1        LTR-III ΔTm    -0.2
3  CC1=NC(=Cc2cc3c4c(c2)CCCN4CCC3)C(=O)N1CCCC(=O)O        LTR-III ΔTm     0.3
4       CCC(=O)C1=NC(=Cc2ccc(O)cc2)C(=O)N1C        LTR-III ΔTm    -0.2

====

experiment: Cytotoxicity test; format: cell-based; details: human, MT4 cells (human T cell leukemia), Figure 7
Measured CC50 at 9 days, listed per entry.
PROPERTY MEASURED: CC50 at 9 days (µM)

>>> print(df.to_string())
                  compound_structure_string  property_measured  measurement_units  number
0  COc1ccc(/C=C2\N=C(CC(C)C)C(=O)N(O)C2=O)cc1     CC50 at 9 days                 µM     0.5
1  COc1c(O)ccc(/C=C2N=C(/C=C/c3ccncc3)N(C)C\2=O)c1OC     CC50 at 9 days                 µM       3
2  COc1c(O)ccc(/C=C2N=C(/C=C/c3ccnc4ccccc34)N(C)C\2=O)c1OC     CC50 at 9 days                 µM     1.7
3  COc1cc(/C=C2N=C(/C=C/c3cc(Br)c(O)c(Br)c3)N(C)C\2=O)cc(OC)c1O     CC50 at 9 days                 µM     4.1
4  COc1ccc(OC)c(/C=C2N=C(/C=C/c3ccncc3)N(C)C\2=O)c1     CC50 at 9 days                 µM       6

====

Measured LTR-III ΔTm, listed per entry.
Tested on: HIV-1 LTR-III G-quadruplex (FAM/TAMRA-labeled LTR-III)
Assay: FRET melting assay, LTR-III G4
Type: binding
Details: Table S1 primary screening, ligand:ODN 50:1, singlicate
Procedure: To evaluate stabilizing properties of the ligands in a complex with oligodeoxyribonucleotides (ODNs) melting with fluorescence registration was used. […] Samples were analyzed using DTprime qPCR system (DNA-Technology LLC, Moscow, Russia). Fluorescence was registered by detection of FAM emission at 520 nm upon excitation at 495 nm in the temperature range of 30–95 °C with 1 °C/min gradient. […]
PROPERTY MEASURED: LTR-III ΔTm (°C)

In [3]: df
Out[3]:
                                   compound  number
0  O=C1/C(=C/c2cccs2)N=C(/C=C/c2ccc(O)cc2)N1CCc1ccc(O)cc1 [MID 161]    -2.6
1  O=C1CN2C(=O)C(=Cc3ccc(O)cc3)N=C2C(=O)N1 [SA 102]     0.2
2  COc1cc(O)cc(OC)c1C=C1N=C(C=Cc2cc(Cl)nc(Cl)c2)N(C)C1=O [N 973]     2.3
3  COc1ccc(-c2c(C(=O)OC(C)C)noc2C(=O)NC2CCCCC2)cc1 [SA 341B]    -0.2
4  CSC(=CC1=NC(=Cc2ccc(O)cc2)C(=O)N1C)c1ccccc1 [SA 599.21]    -0.3

====

Measured ΔTm Pu39, listed per entry.
tested on: Pu39 G4 (G-rich region of the P1 promoter of BCL-2); assay: FRET melting assay, Pu39; format: binding, human; settings: Table S5, newly synthesized compounds, 50:1
PROPERTY MEASURED: ΔTm Pu39 (°C)

In [3]: df
Out[3]:
                  compound_structure_string  property_measured  measurement_units  number
0  COc1c(O)ccc(/C=C2N=C(/C=C/c3ccnc4ccccc34)N(C)C\2=O)c1OC           ΔTm Pu39                 °C       7
1  COc1cc(/C=C2N=C(/C=C/c3ccnc4ccccc34)N(C)C\2=O)cc(OC)c1O           ΔTm Pu39                 °C     7.2
2  COc1c(O)ccc(/C=C2N=C(/C=C/c3cc(Br)c(O)c(Br)c3)N(C)C\2=O)c1OC           ΔTm Pu39                 °C       0
3  COc1cc(/C=C2N=C(/C=C/c3cc(OC)c(O)c(OC)c3)N(C)C\2=O)cc(OC)c1O           ΔTm Pu39                 °C     3.8
4  COc1cc(/C=C2N=C(/C=C/C=C/c3ccc(N(C)C)cc3)N(C)C\2=O)cc(OC)c1O           ΔTm Pu39                 °C     1.8
5  COc1c(O)ccc(/C=C2N=C(/C=C/c3cc(Cl)nc(Cl)c3)N(C)C\2=O)c1OC           ΔTm Pu39                 °C     0.1

====

system: HIV-1 LTR-III G-quadruplex (FAM/TAMRA-labeled LTR-III); test: FRET melting assay, LTR-III G4; assay type: binding; conditions: Table S12; average stabilization
Measured LTR-III (average), listed per entry.
PROPERTY MEASURED: LTR-III (average)

>>> print(df.to_string())
                                    molecule  property_measured    result
 0  COc1cc(/C=C2N=C(/C=C/c3cc(Cl)nc(Cl)c3)N(C)C\2=O)cc(OC)c1O [N 960a]  LTR-III (average)    5,2 °C
 1  COc1c(O)ccc(/C=C2N=C(/C=C/c3cc(Cl)nc(Cl)c3)N(C)C\2=O)c1OC  LTR-III (average)    6,5 °C
 2  COc1cc(/C=C2N=C(/C=C/c3cc(Br)c(O)c(Br)c3)N(CCN)C\2=O)cc(OC)c1O.Cl  LTR-III (average)    1,2 °C
 3  COc1cc(O)ccc1/C=C1N=C(/C=C/c2ccnc3ccccc23)N(C)C\1=O  LTR-III (average)    3,7 °C
 4  CN1C(=O)/C(=C/c2cc[n+](C)cc2)N=C1c1ccccc1  LTR-III (average)    2,3 °C
 5  COc1ccc(O)c(/C=C2N=C(/C=C/c3ccncc3)N(C)C\2=O)c1  LTR-III (average)    3,3 °C
 6  COc1c(O)ccc(/C=C2N=C(/C=C/c3cc(Br)c(O)c(Br)c3)N(C)C\2=O)c1OC  LTR-III (average)    4,3 °C
 7  COc1ccc(OC)c(/C=C2N=C(/C=C/c3ccncc3)N(C)C\2=O)c1  LTR-III (average)    3,2 °C
 8  COc1cc(C=CC2=NC(=Cc3ccc(O)cc3)C(=O)N2C)cc(OC)c1O  LTR-III (average)    0,1 °C
 9  COc1ccc(/C=C2\N=C(CC(C)C)C(=O)N(O)C2=O)cc1  LTR-III (average)   1,65 °C
10         CCNc1ccc(/C=C2\N=C(C)N(C)C2=O)cc1  LTR-III (average)    3,1 °C
11  COc1c(O)ccc(C=C2N=C(C=Cc3ccncc3)N(C)C2=O)c1O  LTR-III (average)    2,7 °C
12  COc1cc(O)ccc1/C=C1N=C(/C=C/N(C)C)N(C)C\1=O  LTR-III (average)    2,3 °C
13        COc1ccc(OC)c(C=C2N=C(C)N(C)C2=O)c1  LTR-III (average)  -1,55 °C
14  COc1cc(O)ccc1C=C1N=C(C=Cc2c(F)c(F)c(F)c(F)c2F)N(C)C1=O  LTR-III (average)    1,8 °C
15  COc1c(O)ccc(/C=C2N=C(/C=C/c3ccnc4ccccc34)N(C)C\2=O)c1OC  LTR-III (average)   11,3 °C

====

tested on: HIV-1 LTR-III G-quadruplex (FAM/TAMRA-labeled LTR-III); experiment: FRET melting assay, LTR-III G4; format: binding; conditions: Table S1 primary screening, ligand:ODN 50:1, singlicate
PROPERTY MEASURED: LTR-III ΔTm (°C)

>>> print(df.to_string())
                                   compound  property_measured  number
0       CC1=NC(=Cc2cc(F)c(O)c(F)c2)C(=O)N1C        LTR-III ΔTm    -0.4
1  CNC(=O)C(N)C(O)c1ccc(OCc2ccccc2)cc1 (centres unmarked)        LTR-III ΔTm    -0.1
2  COc1ccccc1C=CC1=NC(=Cc2ccc(O)cc2)C(=O)N1CCNC(C)=O        LTR-III ΔTm     0.3
3        O=C1NC(=S)SC1=Cc1ccc(O)c(C(=O)O)c1        LTR-III ΔTm     0.6
4         C=CCc1cc(C=C2N=C(C)N(C)C2=O)ccc1O        LTR-III ΔTm    -0.2
